test system: mice; assay: T-maze Continuous Alternation Task (T-CAT), scopolamine-induced cognitive impairment; format: in vivo; settings: mouse; dosed orally at 10 mg/kg; scopolamine-induced deficit
observable: T-maze % control at 10 mg/kg
Quick note: number first, unit second.

Examples with answers:
>  <compound string>
COc1ccc(Cl)cc1NC[C@H]1[C@H](c2ccc(S(N)(=O)=O)cc2)C1(C)C

>  <target system>
mice

>  <measured result>
100 % control

$$$$
>  <compound string>
NS(=O)(=O)c1ccc([C@H]2C[C@@H]2CNc2ccc(F)cc2)cc1

>  <target system>
mice

>  <measured result>
62 % control

$$$$
>  <compound string>
COc1ccc(Cl)cc1NC[C@@H]1[C@@H](c2ccc(S(N)(=O)=O)cc2)C1(C)C

>  <target system>
mice

>  <measured result>
100 % control

$$$$

Attention now turns to another entry.
Input line: Look up T-maze % control at 10 mg/kg: CC1(C)[C@@H](CNc2ccc(F)cc2C(F)(F)F)[C@@H]1c1ccc(S(N)(=O)=O)cc1
Output line: 100 % control

# credit: patent US9790173B2
